assay: qHTS assay to identify small molecule antagonists of the thyroid receptor (TR) signaling pathway - cell viability counter screen (AID 743064); settings: GH3.TRE-Luc viability, CellTiter-Fluor, 24 h; series mostly up to 70.3 µM; also: nearly all actives have a fitted effect of over 50% in size
Records with an inconclusive call do not appear. Active and inactive are the calls of the source. Calls follow the shape of the dose curve; as a rule, active = well fitted cell-killing curve with a large enough effect in the repeat runs; inconclusive = weak or mixed curves, or effect the other way; inactive = no such curve, though single readings can be large or run the other way.
Valid outcomes are listed here; reply with one: active, inactive

For orientation, consider the following solved cases.
INSERT INTO measurements (compound, class) VALUES
  ('CC(=O)CC(=O)c1ccccc1', 'inactive'),
  ('CN(C(=O)CCCOc1ccc2[nH]c(=O)ccc2c1)C1CCCCC1', 'inactive');

How was NC1CCN(c2nc3c(cc2F)c(=O)c(C(=O)O)cn3-c2ccc(F)cc2F)C1 (configuration not stated) classified in this test?
inactive

Could you check what this test reported for Cc1ccc(O)c([C@H](CCN(C(C)C)C(C)C)c2ccccc2)c1 ?
active

Could you kindly confirm the outcome this assay logged for OCC1CC2CC1C1CCC(CO)C21 (configuration not stated) ?
inactive

Test call for this compound, please: CCOC(=O)CC(=O)c1cc(F)c(Cl)nc1Cl
inactive

Hi, sorry to bother you, what did the test record for C[Si](C)O[Si](C)(C)O[Si](C)(C)O[Si](C)C ?
inactive

====

test: qHTS assay to identify small molecule agonists of the estrogen receptor beta (ER-beta) signaling pathway - cell viability counter screen (AID 1259380); conditions: ER-beta-bla HEK293T viability, CellTiter-Glo luminescence, 16 h; series mostly up to 92.4 µM; also: nearly all actives have a fitted effect of over 30% in size; also: potency is read from the fitted curve at half-maximal effect
Inconclusive results are not listed. Active and inactive are the calls of the source. Calls come from the whole dose curve; as a rule, active = well fitted cell-killing curve with a large enough effect in the repeat runs; inconclusive = weak or mixed curves, or effect the other way; inactive = flat fitted curve, though single readings scatter.
value_kind: Potency

Examples with answers:
INSERT INTO assay_data (molecule, observed_measurement) VALUES
  ('CCCCCCCCCCCCCCCC(=O)OC/C=C(C)/C=C/C=C(C)/C=C/C1=C(C)CCCC1(C)C', 'inactive'),
  ('CCCCC(CC)(CO)CO', 'inactive'),
  ('Cn1c(N)nc2nc[nH]c2c1=O', 'inactive'),
  ('CN1CCN(C2=Nc3cc(Cl)ccc3Nc3ccccc32)CC1', '29.8 µM (active)'),
  ('COc1ccccc1OC(=O)Oc1ccccc1OC', '23.7 µM (active)'),
  ('CCCCOC(O)CC (configuration not stated)', 'inactive'),
  ('O=C1[C@H](CC[C@H](O)c2ccc(F)cc2)[C@@H](c2ccc(O)cc2)N1c1ccc(F)cc1', 'inactive'),
  ('C=CC[N+]1([C@H]2C[C@H]3[C@@H]4CC[C@H]5C[C@H](OC(C)=O)[C@@H](N6CCCCC6)C[C@]5(C)[C@H]4CC[C@]3(C)[C@H]2OC(=O)CC)CCCCC1', 'inactive'),
  ('CC(=O)Nc1ccc(/C=N/NC(N)=S)cc1', 'inactive'),
  ('CNCC[C@@H](Oc1ccccc1C)c1ccccc1', '26.6 µM (active)');

Potency measured on CC(C)NCC(O)c1cc(O)cc(O)c1 (configuration not stated) = inactive

get_value(item= CC1(C)[C@H]2CC[C@]1(C)[C@H](O)C2 , readout=Potency) returns inactive

====

target: Cytochrome P450 2C19 (Homo sapiens); assay: Cytochrome P450 Family 2 Subfamily C Member 19 (CYP2C19) small molecule antagonists: luciferase reporter qHTS assay (AID 1671197); conditions: P450-Glo CYP2C19 enzyme, luciferin luminescence, 1 h; series mostly up to 115 µM; also: nearly all actives have a fitted effect of over 65% in size
Results filed as inconclusive are left out. Activity calls are given as the source filed them. Calls come from the whole dose curve; as a rule, active = well fitted inhibition curve with a large enough effect in the repeat runs; inconclusive = weak or mixed curves; inactive = no such curve, though single readings can be large or run the other way.
Bench note: report the call from yes (1) for active, no (0) for inactive

Here's what some known entries look like.
INSERT INTO assay_data (compound, class) VALUES
  ('CCCC[C@H]1CN(CC2CCOCC2)C(=O)OC12CCN(C1(C)CCN(C(=O)c3c(C)ncnc3C)CC1)CC2', 'no (0)'),
  ('C=C(C)C(=O)OCCN(C)C', 'yes (1)'),
  ('CCN(CC)C(C)CN1c2ccccc2Sc2ccccc21 (stereo unspecified)', 'yes (1)');

How was Nc1ccc(C(=O)Nc2ccccc2N)cc1 classified in this test?
no (0)

So what was the verdict on CCCCCCCCCCCCC(=O)O in this test?
yes (1)

For this compound, state the assay outcome: O=C(O)c1cn(C2CC2)c2cc(Cl)c(F)cc2c1=O
no (0)

Where these numbers come from: PubChem BioAssay (Tox21)
